# target_or_test_system: T1, biotinylated hIL-33 protein (R&D systems, Cat #3625-IL/CF) (human, UniProt O95760 112-270, biotinylated (sites not given))
# T1 construct: Same commercial protein as m21, biotin-labelled; also called biotin-hIL-33
# T1 sequence (looked up): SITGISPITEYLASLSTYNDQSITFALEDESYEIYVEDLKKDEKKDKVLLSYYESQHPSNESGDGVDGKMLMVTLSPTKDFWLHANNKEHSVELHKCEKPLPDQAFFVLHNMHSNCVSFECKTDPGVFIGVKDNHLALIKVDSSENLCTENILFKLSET
# protocol_text: competition ELISA, 30 pM biotin-hIL-33 on coated hST2-hFc
experimental_readout: IC50 (nM)
Respond with the bare value in nM.

Guide cases for IC50, answers given:
H4H9672P (antibody, human IgG4, V domains shown, Human IgG4 Fc (H4H)) VH: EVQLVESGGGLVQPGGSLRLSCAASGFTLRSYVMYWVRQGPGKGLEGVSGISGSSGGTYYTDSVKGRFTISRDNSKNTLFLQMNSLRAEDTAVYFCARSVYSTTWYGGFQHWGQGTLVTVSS VL: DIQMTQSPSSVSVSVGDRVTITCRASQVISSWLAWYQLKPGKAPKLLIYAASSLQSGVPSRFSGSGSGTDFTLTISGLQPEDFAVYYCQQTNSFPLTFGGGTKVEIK = 0.44
H4H9640P (antibody, human IgG4, V domains shown, Human IgG4 Fc (H4H)) VH: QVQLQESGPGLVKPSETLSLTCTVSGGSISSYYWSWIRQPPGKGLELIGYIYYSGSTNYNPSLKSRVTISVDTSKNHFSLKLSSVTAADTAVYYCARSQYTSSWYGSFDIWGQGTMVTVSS VL: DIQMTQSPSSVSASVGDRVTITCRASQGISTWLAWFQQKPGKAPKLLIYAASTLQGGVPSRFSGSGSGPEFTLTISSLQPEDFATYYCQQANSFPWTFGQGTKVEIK = 0.35
H4H9667P (antibody, human IgG4, V domains shown, Human IgG4 Fc (H4H)) VH: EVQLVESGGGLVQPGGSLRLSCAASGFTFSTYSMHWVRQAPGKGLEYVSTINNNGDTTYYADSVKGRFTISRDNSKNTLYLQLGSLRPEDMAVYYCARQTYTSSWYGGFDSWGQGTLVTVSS VL: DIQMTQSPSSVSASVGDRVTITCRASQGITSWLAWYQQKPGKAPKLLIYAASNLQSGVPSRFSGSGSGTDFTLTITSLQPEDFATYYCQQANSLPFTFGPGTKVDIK = 0.41

[Q] Give a short answer stating reported IC50 for H4H9664P (antibody, human IgG4, V domains shown, Human IgG4 Fc (H4H)) VH: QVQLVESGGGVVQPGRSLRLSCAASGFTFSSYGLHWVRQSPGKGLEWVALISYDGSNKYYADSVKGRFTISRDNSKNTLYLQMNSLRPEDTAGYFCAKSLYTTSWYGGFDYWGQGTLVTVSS VL: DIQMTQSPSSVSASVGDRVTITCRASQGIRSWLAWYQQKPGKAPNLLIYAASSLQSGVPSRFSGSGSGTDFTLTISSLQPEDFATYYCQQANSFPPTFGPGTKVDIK .
[A] 0.3

[Q] Read the entry H4H9671P (antibody, human IgG4, V domains shown, Human IgG4 Fc (H4H)) VH: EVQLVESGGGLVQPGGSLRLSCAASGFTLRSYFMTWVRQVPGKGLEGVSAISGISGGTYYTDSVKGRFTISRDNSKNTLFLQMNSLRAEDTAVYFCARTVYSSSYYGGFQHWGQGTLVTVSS VL: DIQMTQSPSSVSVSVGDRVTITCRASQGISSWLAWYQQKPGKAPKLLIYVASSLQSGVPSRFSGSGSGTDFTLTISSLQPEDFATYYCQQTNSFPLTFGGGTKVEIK and write its reported IC50.
[A] 0.46

[Q] Return value of IC50 for input H4H9629P (antibody, human IgG4, V domains shown, Human IgG4 Fc (H4H)) VH: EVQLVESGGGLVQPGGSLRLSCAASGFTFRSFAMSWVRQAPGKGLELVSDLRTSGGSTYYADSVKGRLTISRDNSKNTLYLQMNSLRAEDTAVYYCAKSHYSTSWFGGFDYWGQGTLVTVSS VL: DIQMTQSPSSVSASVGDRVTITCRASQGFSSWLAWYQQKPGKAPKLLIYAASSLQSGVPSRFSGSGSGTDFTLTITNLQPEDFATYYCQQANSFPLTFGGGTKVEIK , no commentary.
[A] 0.45

[Q] Give IC50 for H4H9666P (antibody, human IgG4, V domains shown, Human IgG4 Fc (H4H)) VH: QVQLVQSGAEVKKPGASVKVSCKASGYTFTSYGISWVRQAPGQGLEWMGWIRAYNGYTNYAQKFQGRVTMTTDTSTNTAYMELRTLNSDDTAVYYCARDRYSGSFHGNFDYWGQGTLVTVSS VL: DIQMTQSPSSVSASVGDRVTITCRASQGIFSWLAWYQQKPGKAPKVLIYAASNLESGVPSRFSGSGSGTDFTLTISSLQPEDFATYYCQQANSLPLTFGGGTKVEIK
[A] 0.6

[Q] For H4H9660P (antibody, human IgG4, V domains shown, Human IgG4 Fc (H4H)) VH: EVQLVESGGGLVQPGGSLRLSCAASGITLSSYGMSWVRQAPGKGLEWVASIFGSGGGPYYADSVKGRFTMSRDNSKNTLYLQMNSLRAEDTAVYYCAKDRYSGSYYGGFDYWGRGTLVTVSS VL: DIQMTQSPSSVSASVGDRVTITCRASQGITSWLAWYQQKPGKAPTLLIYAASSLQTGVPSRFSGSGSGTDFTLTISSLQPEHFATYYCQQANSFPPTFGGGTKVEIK , write its IC50.
[A] 0.31

[Q] Look up and state reported IC50 for H4H9665P (antibody, human IgG4, V domains shown, Human IgG4 Fc (H4H)) VH: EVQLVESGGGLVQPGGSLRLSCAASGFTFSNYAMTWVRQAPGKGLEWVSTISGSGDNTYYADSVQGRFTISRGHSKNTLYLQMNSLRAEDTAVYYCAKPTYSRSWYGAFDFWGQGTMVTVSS VL: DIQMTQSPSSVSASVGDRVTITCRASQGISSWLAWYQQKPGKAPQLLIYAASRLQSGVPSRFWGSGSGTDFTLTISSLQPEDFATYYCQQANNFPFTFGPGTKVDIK
[A] 0.87

[Q] Supply recorded IC50 for H1M9568N (antibody, mouse IgG1, V domains shown, Human variable domains, mouse IgG1 Fc (H1M)) VH: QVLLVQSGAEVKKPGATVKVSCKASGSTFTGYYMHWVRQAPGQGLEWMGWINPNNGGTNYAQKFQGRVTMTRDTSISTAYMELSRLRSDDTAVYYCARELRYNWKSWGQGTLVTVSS VL: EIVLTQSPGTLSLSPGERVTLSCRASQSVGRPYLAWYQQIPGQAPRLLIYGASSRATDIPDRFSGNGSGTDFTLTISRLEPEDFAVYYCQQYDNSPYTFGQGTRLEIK here.
[A] 0.19
